# MEASUREMENT TARGET: Glutamate receptor ionotropic, NMDA 2C (Rattus norvegicus)
# TEST SUMMARY: Positive allosteric modulation of rat GluN2C expressed in Xenopus laevis oocytes assessed as potentiation of L-glutamate/glycine-induced current response at holding potential -60 mV by two-electrode voltage clamp method relative to L-glutamate/glycine
# Type: cell-based
# Design: concentration or dose not given beside the values
I'd be grateful if you could share measured Activity for these entries.
One number for each entry, in %.

Consider the following illustrative entries.
COMPOUND | TEST RESULT
CC(C)CCCc1ccc2cc(C(=O)O)ccc2c1 | 117
O=C(O)c1ccc2cc(CCCC3CCCC3)ccc2c1 | 105
CCCCCc1ccc2cc(C(=O)O)ccc2c1 | 42.7
CC(C)CCC(C)c1ccc2cc(C(=O)O)ccc2c1 (racemic) | 263

Shifting focus to the compound that follows.
Q: Entry C=C(CCC(C)C)c1ccc2cc(C(=O)O)ccc2c1 has what Activity?
Result: 137

---

# MEASUREMENT TARGET: Glutamate receptor ionotropic, NMDA 2B (Rattus norvegicus)
# TEST SUMMARY: Allosteric modulation of rat GluN2B expressed in Xenopus laevis oocytes assessed as L-glutamate/glycine-induced current response at 100 uM at holding potential -60 mV by two-electrode voltage clamp method relative to L-glutamate/glycine
# Format: cell-based
READOUT KIND: Activity (%)
Answers are plain numbers, in %.

Value sought for every listed molecule: Activity.
1. O=C(O)c1cc2cc(CCc3ccccc3)ccc2cc1O
2. COc1ccc(/C=C/c2ccc3cc(O)c(C(=O)O)cc3c2)cc1
3. CC(C)C(=O)OCc1ccc2cc(C(=O)O)ccc2c1
4. O=C(O)c1cc2cc(/C=C/c3ccccc3C(=O)O)ccc2cc1O
5. O=C(O)c1cc2cc(/C=C/c3ccc([N+](=O)[O-])cc3)ccc2cc1O
6. CC(C)CCCc1ccc2ccc(C(=O)O)cc2c1
7. O=C(O)c1ccc2cc(I)c3ccccc3c2c1
8. O=C(O)c1cc2cc(-c3ccccc3)ccc2cc1O

Result:
[54.3, 36, 45, 84.5, 53.2, 120, 101, 49.9]

Items follow; give Activity for each.
1. COc1ccccc1/C=C/c1ccc2cc(O)c(C(=O)O)cc2c1
2. O=C(O)c1cccc(/C=C/c2ccc3cc(O)c(C(=O)O)cc3c2)c1
3. O=C(O)c1cc2cc(/C=C/c3ccccc3[N+](=O)[O-])ccc2cc1O

Result:
1. 74
2. 70
3. 56.1

---

# MEASUREMENT TARGET: UniProt Q00960
# Sequence (Q00960 27-1482 limits assumed): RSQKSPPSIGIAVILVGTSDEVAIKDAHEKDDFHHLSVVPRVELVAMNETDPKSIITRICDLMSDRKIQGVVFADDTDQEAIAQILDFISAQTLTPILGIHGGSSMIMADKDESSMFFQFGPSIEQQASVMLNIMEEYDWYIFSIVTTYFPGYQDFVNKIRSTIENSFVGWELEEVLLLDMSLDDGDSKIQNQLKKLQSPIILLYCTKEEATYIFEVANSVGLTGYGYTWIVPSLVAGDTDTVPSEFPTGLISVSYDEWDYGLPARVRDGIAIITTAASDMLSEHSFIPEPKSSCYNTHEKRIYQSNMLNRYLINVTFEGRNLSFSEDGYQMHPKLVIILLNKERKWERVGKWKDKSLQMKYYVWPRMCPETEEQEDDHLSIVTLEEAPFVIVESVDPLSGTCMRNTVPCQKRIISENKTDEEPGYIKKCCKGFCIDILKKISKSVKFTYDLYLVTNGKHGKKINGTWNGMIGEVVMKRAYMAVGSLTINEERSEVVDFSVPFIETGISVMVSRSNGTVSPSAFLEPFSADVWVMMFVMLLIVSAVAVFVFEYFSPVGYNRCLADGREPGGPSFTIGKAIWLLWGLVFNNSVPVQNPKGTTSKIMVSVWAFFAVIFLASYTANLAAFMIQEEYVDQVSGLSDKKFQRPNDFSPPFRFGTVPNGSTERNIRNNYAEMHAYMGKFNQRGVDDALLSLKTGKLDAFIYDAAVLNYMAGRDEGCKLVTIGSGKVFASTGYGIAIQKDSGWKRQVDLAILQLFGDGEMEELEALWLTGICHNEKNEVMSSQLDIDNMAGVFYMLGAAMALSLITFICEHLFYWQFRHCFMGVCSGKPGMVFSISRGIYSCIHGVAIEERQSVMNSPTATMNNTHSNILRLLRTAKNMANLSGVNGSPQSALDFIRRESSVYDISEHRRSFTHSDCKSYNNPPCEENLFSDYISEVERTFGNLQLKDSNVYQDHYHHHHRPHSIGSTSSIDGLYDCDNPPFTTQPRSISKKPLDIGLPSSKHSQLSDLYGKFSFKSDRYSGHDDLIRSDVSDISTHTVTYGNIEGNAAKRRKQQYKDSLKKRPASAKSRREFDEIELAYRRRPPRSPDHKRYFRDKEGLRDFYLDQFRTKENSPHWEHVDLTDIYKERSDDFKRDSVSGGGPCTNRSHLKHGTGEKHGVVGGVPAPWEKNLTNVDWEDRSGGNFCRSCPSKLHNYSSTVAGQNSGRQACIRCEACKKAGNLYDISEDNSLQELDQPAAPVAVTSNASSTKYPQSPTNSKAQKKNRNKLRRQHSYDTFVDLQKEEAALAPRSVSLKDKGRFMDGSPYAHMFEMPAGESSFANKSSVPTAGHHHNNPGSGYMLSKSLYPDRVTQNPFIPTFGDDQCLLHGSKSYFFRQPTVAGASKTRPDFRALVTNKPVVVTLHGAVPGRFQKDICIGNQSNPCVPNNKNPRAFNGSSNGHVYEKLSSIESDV
# TEST SUMMARY: Agonist activity at rat GluN2B expressed in Xenopus laevis oocytes assessed as effect on current response at holding potential -60 mV by two-electrode voltage clamp method relative to L-glutamate/glycine
# Assay type: cell-based
Active and inactive are the calls of the source. The rule behind the calls is not given here.
READOUT KIND: Activity

COMPOUND | TEST RESULT
CCCCCc1ccc2cc(C(=O)O)ccc2c1 | inactive
CCCCCc1ccc2cc(CC(=O)O)ccc2c1 | inactive
CC(C/C=C/c1ccc2cc(C(=O)O)ccc2c1)C(=O)O (racemic) | inactive
CCCCCc1ccc2cc(CO)ccc2c1 | inactive
CC(C)CCCc1ccc2cc(C(=O)O)ccc2c1 | inactive

For each entry beneath this line, provide reported Activity.
1. CC(C)C/C=C/c1ccc2cc(C(=O)O)ccc2c1
2. CC(C)CCCc1ccc2cc(C(=O)O)c(C(=O)O)cc2c1
3. O=C(O)c1ccc2cc(C3CC3)ccc2c1
4. CC(C)CCC(C)c1ccc2cc(C(=O)O)ccc2c1 (racemic)
5. CCCCCc1ccc2cc(C(=O)O)ccc2c1Br
6. O=C(O)c1ccc2cc(I)c3ccccc3c2c1
7. C=C(CCC(C)C)c1ccc2cc(C(=O)O)ccc2c1

Result:
["inactive", "inactive", "inactive", "inactive", "inactive", "inactive", "inactive"]

List reported Activity for each of these compounds:
1. O=C(O)c1ccc2cc(CCCCc3ccccc3)ccc2c1
2. CC(C)CC#Cc1ccc2cc(C(=O)O)ccc2c1
3. CC(C)CCCc1ccc2cc(O)c(C(=O)O)cc2c1
4. CC(C)CCCc1ccc2ccc(C(=O)O)cc2c1

Result:
inactive
inactive
inactive
inactive

Report Activity for every entry below.
1. CC(C)CC(Cc1ccc2cc(C(=O)O)ccc2c1)C(=O)O (racemic)
2. CC(CCCc1ccc2cc(C(=O)O)ccc2c1)C(=O)O (racemic)
3. CC(CCCc1ccc2cc(C(=O)O)ccc2c1)CC(=O)O (racemic)
4. O=C(O)c1ccc2cc(CCCC3CCCC3)ccc2c1
5. CCC/C=C/c1ccc2cc(C(=O)O)ccc2c1

Result:
1: inactive; 2: inactive; 3: inactive; 4: inactive; 5: inactive

Batch lookup, Activity per entry.
1. CCCCOc1ccc2cc(C(=O)O)ccc2c1
2. CC(C)CCCc1ccc2cc(C(=O)O)c(O)cc2c1

Result:
1: inactive; 2: inactive

FYI, the data here is from ChEMBL document CHEMBL4422636.
